- System: C. elegans
- protocolDetails: microbe, parasite or virus in culture
- experimentalConditions: Caenorhabditis elegans, 0 h, read-out: Percentage of motility inhibition 0 h
In this section, each of the molecules is paired with its reported inhibition at 110 µM.
Please state the figure in %; there is no need to write the unit.

Exam item: Sample CC1(C)[C@H](C(=O)O)N2C(=O)C[C@H]2S1(=O)=O [Sulbactam] — what was its inhibition at 110 µM?
Marked response: 1

Exam item: Data request, read-out inhibition at 110 µM, for Oc1cc(O)c2c(c1)O[C@@H](c1cc(O)c(O)c(O)c1)[C@H](O)C2 [(‐)‐Gallocatechin]
Marked response: 43

Exam item: // lookup inhibition at 110 µM for COc1ccc(C[C@@H]2c3cc(Oc4cc(C[C@@H]5c6cc(O)c(OC)cc6CCN5C)ccc4O)c(OC)cc3CCN2C)cc1 [Isoliensinine]
Marked response: 3

# context switch: different molecule, same inhibition at 110 µM
Exam item: Quick one: inhibition at 110 µM of CC(C)CN(C[C@@H](O)[C@H](Cc1ccccc1)NC(=O)O[C@H]1CO[C@H]2OCC[C@H]21)S(=O)(=O)c1ccc(N)cc1 [Darunavir] ?
Marked response: 39

---

- System: C. elegans
- protocolDetails: microbe, parasite or virus in culture
- experimentalConditions: Caenorhabditis elegans, 24 h, read-out: Percentage of motility inhibition 24 h, Table S2, C. elegans SS assay, 110 μM, 24 h, averages of 4 data points
inhibition at 110 µM vs 7%: at or above is class 1, below is class 0.

Example entries begin here.
Exam item: Answer whether inhibition at 110 µM of CC(=O)O[C@@H]1C(=O)C2=C(C(=O)C[C@H]3C(C)(C)C(=O)CC[C@]23C)[C@]2(C)C(=O)C[C@H]([C@H](C)CC(=O)CC(C)C(=O)O)[C@@]12C (stereo partly drawn) is greater than or equal to 7%.
Marked response: class 0

Exam item: hey, is inhibition at 110 µM for this one >= 7%? `c1cncc(C2=NCCC2)c1`
Marked response: class 1

Exam item: API: above_or_equal(metric=inhibition at 110 µM, cutoff=7%) for item `C[C@H](CCC(=O)O)[C@H]1CC[C@H]2[C@@H]3C[C@H](O)[C@@H]4C[C@H](O)CC[C@]4(C)[C@H]3CC[C@]12C`
Marked response: class 1

Exam item: Is reported inhibition at 110 µM greater than or equal to 7% here: `C[C@@H]1[C@H]2c3cc4c(cc3O[C@@]35OCOC3=CC(=O)[C@H](C[C@H]1C)[C@@H]25)OCO4`
Marked response: class 1

More entries:
Exam item: Please tell me: is the compound `C[C@@H](c1nc(-c2ccc(C#N)cc2)cs1)[C@](O)(Cn1cncn1)c1cc(F)ccc1F` at or over 7% in terms of inhibition at 110 µM?
Marked response: class 0

Exam item: decide whether the reported inhibition at 110 µM for `C=C(C)[C@@H]1CC[C@]2(C(=O)O)CC[C@]3(C)[C@H](CC[C@@H]4[C@@]5(C)CC[C@H](OC(=O)CC(C)(C)C(=O)O)C(C)(C)[C@@H]5CC[C@]43C)[C@@H]12` is at least 7%.
Marked response: class 1

Exam item: Quick check: does `COc1c(/C=C/C(=O)c2ccc(O)c(CC=C(C)C)c2)ccc(O)c1O` have inhibition at 110 µM greater than or equal to 7%?
Marked response: class 0

---

- Test system: C. elegans
- protocolDetails: microbe, parasite or virus in culture
- experimentalConditions: Caenorhabditis elegans, 24 h, read-out: Percentage of motility inhibition 24 h, Table S2, C. elegans SS assay, 110 μM, 24 h, averages of 4 data points
endpoint: inhibition at 110 µM (%)
State the answer as a number, implicitly in %.

In the examples that follow, each entry is paired with its recorded inhibition at 110 µM.
Exam item: What does the data say about its inhibition at 110 µM? Entry: `CO[C@H]1C(=O)[C@]2(C)[C@@H](OC)C[C@H]3OC[C@@]3(OC(C)=O)[C@H]2[C@H](OC(=O)c2ccccc2)[C@]2(O)C[C@H](OC(=O)[C@H](O)[C@@H](NC(=O)OC(C)(C)C)c3ccccc3)C(C)=C1C2(C)C`
Marked response: 9

Exam item: What measured inhibition at 110 µM goes with `NC[C@H]1O[C@H](O[C@H]2[C@H](O)[C@@H](O[C@H]3O[C@H](CO)[C@@H](O)[C@H](N)[C@H]3O)[C@H](N)C[C@@H]2N)[C@H](N)C[C@@H]1O` ?
Marked response: 0

Exam item: Tell me the measured inhibition at 110 µM of `O=C1C(O)=C([C@H]2CC[C@H](c3ccc(Cl)cc3)CC2)C(=O)c2ccccc21` , please.
Marked response: 2

Others:
Exam item: Recorded inhibition at 110 µM for CC(=O)OC(C)(C)C1CC=C(C)CC1 (stereo not drawn) [α-Terpinyl acetate] , please?
Marked response: 28

Exam item: May I ask what inhibition at 110 µM has been recorded for CCCc1cc(C(N)=S)ccn1 [Prothionamide] ?
Marked response: 7

Exam item: Which inhibition at 110 µM value belongs to `COc1ccc(-c2coc3cc(O)c(OC)c(O)c3c2=O)cc1` ?
Marked response: 0

Exam item: Field request: inhibition at 110 µM | item: `C[C@H](O)C(=O)O`
Marked response: 21

Exam item: So what does the record say about inhibition at 110 µM for `O=c1c(O[C@@H]2O[C@H](CO)[C@@H](O)[C@H](O)[C@H]2O)c(-c2ccc(O)c(O)c2)oc2cc(O)cc(O)c12` ?
Marked response: 2

---

- Test system: C. elegans
- experimentalConditions: Table S2, C. elegans SS assay, 110 μM, 0 h, averages of 4 data points
So basically: Percentage of motility inhibition 0 h at 1% or higher? That is met. Lower than 1%? That is not met.

Exam item: Answer whether Percentage of motility inhibition 0 h of `C[C@@H]1O[C@@H](O[C@H]2[C@H](Oc3cc(O)c(C(=O)CCc4ccc(O)cc4)c(O)c3)O[C@H](CO)[C@@H](O)[C@@H]2O)[C@H](O)[C@H](O)[C@H]1O` is greater than or equal to 1%.
Marked response: met

Exam item: Entry `COc1cc(/C=C/C(=O)N2CCC=CC2=O)cc(OC)c1OC` : is its Percentage of motility inhibition 0 h no less than 1%?
Marked response: not met

Exam item: # bool: Percentage of motility inhibition 0 h of O=Cc1c[nH]c2cccc(O)c12 [4‐Hydroxy‐1H‐indole‐3‐carbaldehyde] >= 1%
Marked response: met

Exam item: Form field: Percentage of motility inhibition 0 h at least 1%? Entry: `C[C@@H]1CC[C@@H]2O[C@@]23C(=O)C(=O)[C@@H]2[C@@H](C2(C)C)[C@@]13C`
Marked response: met

Exam item: Has COc1cc2c(cc1O)CCN1Cc3c(ccc(OC)c3OC)CC21 (stereo not drawn) a recorded Percentage of motility inhibition 0 h greater than or equal to 1%?
Marked response: met

***
Exam item: Quick check: does C=C1C2CC3(C1O)C1CC4C5(C)CCC(O)C4(C1N(CC)C5)C3CC2O (stereo not drawn) [12‐Epinapelline] have Percentage of motility inhibition 0 h greater than or equal to 1%?
Marked response: not met

Exam item: Say whether CN1[C@@H]2CC(O)C[C@H]1[C@@H]1O[C@@H]12 (stereo partly drawn) shows Percentage of motility inhibition 0 h of 1% or more.
Marked response: met

Exam item: Reported Percentage of motility inhibition 0 h at or above 1%? CC(C)=CCC[C@](C)(O[C@@H]1O[C@H](CO[C@@H]2O[C@H](CO)[C@@H](O)[C@H](O)[C@H]2O)[C@@H](O)[C@H](O)[C@H]1O)[C@H]1CC[C@]2(C)[C@@H]1[C@H](O)C[C@@H]1[C@@]3(C)CC[C@H](O[C@@H]4O[C@H](CO)[C@@H](O)[C@H](O)[C@H]4O[C@@H]4O[C@H](CO)[C@@H](O)[C@H](O)[C@H]4O[C@@H]4OC[C@@H](O)[C@H](O)[C@H]4O)C(C)(C)[C@@H]3CC[C@]12C [Notoginsenoside Fa]
Marked response: met

Exam item: Can CN1C[C@@H]2C[C@H]1CN2c1cc2c(cc1F)c(=O)c(C(=O)O)cn2C1CC1.CS(=O)(=O)O [Danofloxacin (mesylate)] be said to have Percentage of motility inhibition 0 h at or above 1%?
Marked response: not met

Exam item: Answer whether Percentage of motility inhibition 0 h of CC1(C)CC[C@]2(C(=O)O)CC[C@]3(C)C(=CC[C@@H]4[C@@]5(C)CC[C@H](O[C@@H]6O[C@H](C(=O)O)[C@@H](O)[C@H](O)[C@H]6O)C(C)(C)[C@@H]5CC[C@]43C)[C@@H]2C1 [Calenduloside E] is greater than or equal to 1%.
Marked response: not met

Exam item: Identify whether the reported Percentage of motility inhibition 0 h of the following compound is 1% or greater: `O=C1CCC[C@@H]2[C@H]3CCCN4CCC[C@@H](CN12)[C@H]34`
Marked response: not met
